Hey, just so you know, these numbers are from patent US10703748B2.

As shown below, each of these compounds has a reported inhibition at 10 µM value.
# Tested on: SW480 colon carcinoma cells
# Assay Comment: Cell viability assay (CellTiter-Glo)
# Recorded Conditions: Homo sapiens, SW480, read-out: percent inhibition at 10 μM

[
  {
    "Compound": "Cn1cc(-c2cnc3cnc(NC(=O)c4ccc5nccnc5c4)cc3c2)cn1",
    "inhibition at 10 µM (%)": 17.8
  },
  {
    "Compound": "Cc1ncc(-c2ccc3cnc(NC(=O)C4CCN(C)CC4)cc3n2)s1",
    "inhibition at 10 µM (%)": 40.4
  },
  {
    "Compound": "Cn1cc(-c2ccc3nnc(NC(=O)C4CC4)cc3c2)cn1",
    "inhibition at 10 µM (%)": 15.8
  },
  {
    "Compound": "CN1CCC(C(=O)Nc2cc3cc(-c4cnsc4)cnc3cn2)CC1",
    "inhibition at 10 µM (%)": 41.5
  },
  {
    "Compound": "Cc1ncc(-c2ccc3cnc(NC(=O)C(C)N4CCCCC4)nc3c2)n1C (stereo not shown)",
    "inhibition at 10 µM (%)": 22.1
  },
  {
    "Compound": "C[C@H]1CCCN1CC(=O)Nc1cc2nc(-c3cnn(C)c3)ccc2cn1",
    "inhibition at 10 µM (%)": 35.2
  },
  {
    "Compound": "CN1CCc2ccc(C(=O)Nc3cc4cc(-c5cnn(C)c5)cnc4cn3)cc2C1",
    "inhibition at 10 µM (%)": 28.8
  },
  {
    "Compound": "O=C(Nc1ncc2ccc(-c3cncc(N[C@H]4CCNC[C@@H]4F)n3)cc2n1)C1CC1",
    "inhibition at 10 µM (%)": 34.3
  },
  {
    "Compound": "CN1CCC(C(=O)Nc2cc3nc(-c4cnsc4)ccc3cn2)CC1",
    "inhibition at 10 µM (%)": 28.7
  },
  {
    "Compound": "CC(C(=O)Nc1ncc2ccc(-c3cnn(C)c3)cc2n1)N1CCCCC1 (stereo not shown)",
    "inhibition at 10 µM (%)": 50
  }
]

---

As shown below, each of these compounds has a reported inhibition at 10 µM value.
# Test system: SW480 colon carcinoma cells
# Assay Comment: Cell viability assay (CellTiter-Glo)
# Recorded Conditions: Homo sapiens, SW480, read-out: percent inhibition at 10 μM
Assay Endpoint: inhibition at 10 µM

[
  {
    "Compound": "CN1CCC(Oc2cccc(C(=O)Nc3ncc4ccc(-c5cnco5)cc4n3)c2)CC1",
    "Assay Endpoint": "inhibition at 10 µM",
    "Result": "23.7%"
  },
  {
    "Compound": "N#CC(c1cncc(-c2ccc3cnc(NC(=O)C4CC4)nc3c2)c1)N1CCC(O)CC1 (stereo not drawn)",
    "Assay Endpoint": "inhibition at 10 µM",
    "Result": "15%"
  },
  {
    "Compound": "Cn1cc(-c2ccc3cnc(NC(=O)C4CCN(Cc5ncccn5)CC4)nc3c2)cn1",
    "Assay Endpoint": "inhibition at 10 µM",
    "Result": "17.9%"
  },
  {
    "Compound": "Cc1ncc(-c2ccc3cnc(NC(=O)[C@H]4CC[C@H](N(C)C)CC4)cc3n2)s1",
    "Assay Endpoint": "inhibition at 10 µM",
    "Result": "44.8%"
  },
  {
    "Compound": "COC1CCN(CC(=O)Nc2cc3cc(-c4cn(C)nn4)ncc3cn2)CC1",
    "Assay Endpoint": "inhibition at 10 µM",
    "Result": "34.9%"
  },
  {
    "Compound": "O=C(Nc1cc2nc(-c3cnco3)ccc2cn1)c1ccncc1",
    "Assay Endpoint": "inhibition at 10 µM",
    "Result": "11.7%"
  },
  {
    "Compound": "O=C(Nc1cc2cc(-c3cnco3)cnc2cn1)[C@H]1CC[C@H](CO)CC1",
    "Assay Endpoint": "inhibition at 10 µM",
    "Result": "24.6%"
  },
  {
    "Compound": "CC(C)CN1CCC(C(=O)Nc2ncc3ccc(-c4cnn(C)c4)cc3n2)CC1",
    "Assay Endpoint": "inhibition at 10 µM",
    "Result": "33.9%"
  },
  {
    "Compound": "CC(C)Oc1ccc(C(=O)Nc2cc3cc(-c4cnc5n4CCNC5)cnc3cn2)cc1",
    "Assay Endpoint": "inhibition at 10 µM",
    "Result": "18.6%"
  },
  {
    "Compound": "Cn1cncc1-c1cnc2cnc(NC(=O)C3CCC(F)(F)CC3)cc2c1",
    "Assay Endpoint": "inhibition at 10 µM",
    "Result": "21.4%"
  },
  {
    "Compound": "Cc1nnc(-c2cnc3cnc(NC(=O)c4ccnc(SC5CCN(C)CC5)c4)cc3c2)s1",
    "Assay Endpoint": "inhibition at 10 µM",
    "Result": "17.1%"
  },
  {
    "Compound": "CN1CCN(c2ncc(C(=O)Nc3cc4cc(-c5cnn(C)c5)ncc4cn3)s2)CC1",
    "Assay Endpoint": "inhibition at 10 µM",
    "Result": "40.9%"
  }
]

---

# Test system: SW480 colon carcinoma cells
# Assay Comment: Cell viability assay (CellTiter-Glo)
# Recorded Conditions: Homo sapiens, SW480, read-out: percent inhibition at 10 μM
Response field class: string, computed from recorded inhibition at 10 µM by ranges low bin = under 10%, mid bin = from 10% up to 30%, high bin = 30% and over

[
  {
    "Structure Notation": "C[C@H]1CCCN1CC(=O)Nc1ncc2ccc(-c3cnn(C)c3)cc2n1",
    "Group": "high bin"
  },
  {
    "Structure Notation": "Cn1cc(-c2cnc3cnc(NC(=O)C4CCN(Cc5ncccn5)CC4)cc3c2)cn1",
    "Group": "mid bin"
  },
  {
    "Structure Notation": "Cn1cnnc1-c1cnc2cnc(NC(=O)C3CCN(CCC(F)(F)F)CC3)cc2c1",
    "Group": "mid bin"
  },
  {
    "Structure Notation": "CN1CCN(c2cccc(C(=O)Nc3cc4cc(-c5cnn(C)c5)ccc4nn3)c2)CC1",
    "Group": "low bin"
  },
  {
    "Structure Notation": "CN(CC(=O)Nc1cc2cc(-c3cnn(C)c3)cnc2cn1)C1CCC1",
    "Group": "low bin"
  },
  {
    "Structure Notation": "COC1CCN(CC(=O)Nc2ncc3ccc(-c4cn(C)nn4)cc3n2)CC1",
    "Group": "mid bin"
  },
  {
    "Structure Notation": "Cn1nnnc1-c1ccc2cnc(NC(=O)C3CCN(CCC(F)(F)F)CC3)nc2c1",
    "Group": "mid bin"
  },
  {
    "Structure Notation": "CN1CCC(C(=O)Nc2ncc3ccc(-c4cnsc4)cc3n2)CC1",
    "Group": "low bin"
  },
  {
    "Structure Notation": "Cn1cc(-c2cc3cc(NC(=O)c4ccc5nccnc5c4)ncc3cn2)cn1",
    "Group": "mid bin"
  },
  {
    "Structure Notation": "Cn1cc(-c2ccc3cnc(NC(=O)CN4CCOCC4)nc3c2)cn1",
    "Group": "low bin"
  },
  {
    "Structure Notation": "O=C(Nc1ncc2ccc(-c3cnco3)cc2n1)C1CCN(C(=O)CN2CCCC2)CC1",
    "Group": "mid bin"
  },
  {
    "Structure Notation": "Cn1cc(-c2cnc3cnc(NC(=O)C4CC4)cc3c2)cn1",
    "Group": "high bin"
  },
  {
    "Structure Notation": "CCN(CC)CC(=O)Nc1cc2cc(-c3cnn(C)c3CN3CCCCC3)cnc2cn1",
    "Group": "high bin"
  },
  {
    "Structure Notation": "COCCN[C@H]1CC[C@H](C(=O)Nc2cc3nc(-c4cnn(C)c4)ccc3cn2)CC1",
    "Group": "high bin"
  },
  {
    "Structure Notation": "Cn1ncc(-c2cnc3cnc(NC(=O)c4ccnc(N5CCOCC5)c4)cc3c2)c1CN1CCOCC1",
    "Group": "mid bin"
  },
  {
    "Structure Notation": "Nc1cncc(-c2ccc3cnc(NC(=O)c4ccc(OC5CCNCC5)cc4)nc3c2)c1",
    "Group": "high bin"
  },
  {
    "Structure Notation": "CN1CCC(Oc2cccc(C(=O)Nc3cc4cc(-c5cnco5)cnc4cn3)c2)CC1",
    "Group": "low bin"
  },
  {
    "Structure Notation": "Cn1cncc1-c1cc2cc(NC(=O)c3ccc(F)cc3)ncc2cn1",
    "Group": "high bin"
  },
  {
    "Structure Notation": "O=C(Nc1cc2cc(-c3cncc(NC4CCNCC4)n3)ncc2cn1)C1CCOCC1",
    "Group": "high bin"
  },
  {
    "Structure Notation": "Cn1cc(-c2ccc3cnc(NC(=O)C4CCN(Cc5ncco5)CC4)nc3c2)cn1",
    "Group": "mid bin"
  },
  {
    "Structure Notation": "Cc1ncc(C(=O)Nc2cc3cc(-c4cnc(C)n4C)cnc3cn2)s1",
    "Group": "low bin"
  },
  {
    "Structure Notation": "CC(C)CN1CCC(C(=O)Nc2cc3cc(-c4cnn(C)c4)cnc3cn2)CC1",
    "Group": "mid bin"
  },
  {
    "Structure Notation": "COC1CCN(CC(=O)Nc2cc3cc(-c4cn(C)nn4)cnc3cn2)CC1",
    "Group": "mid bin"
  },
  {
    "Structure Notation": "O=C(Nc1ncc2ccc(-c3cncs3)cc2n1)[C@H]1CC[C@H](CN2CC(F)C2)CC1",
    "Group": "mid bin"
  },
  {
    "Structure Notation": "Cn1cc(-c2ccc3cnc(NC(=O)[C@H]4CCCN4)nc3c2)cn1",
    "Group": "mid bin"
  },
  {
    "Structure Notation": "Cn1cc(-c2ccc3cnc(NC(=O)C4CCN(CC5(C(F)(F)F)CC5)CC4)nc3c2)nn1",
    "Group": "mid bin"
  },
  {
    "Structure Notation": "Cc1nnc(-c2ccc3cnc(NC(=O)CN4C[C@@H]5C[C@H]4CO5)nc3c2)s1",
    "Group": "mid bin"
  },
  {
    "Structure Notation": "O=C(Nc1cc2cc(-c3cncc(NCC4(F)CNC4)n3)cnc2cn1)C1CC1",
    "Group": "low bin"
  },
  {
    "Structure Notation": "Cn1cc(-c2ccc3cnc(NC(=O)[C@H]4CC[C@H](N5CCOCC5)CC4)cc3n2)cn1",
    "Group": "high bin"
  },
  {
    "Structure Notation": "CN(C)[C@H]1CC[C@H](C(=O)Nc2cc3cc(-c4cncs4)ncc3cn2)CC1",
    "Group": "mid bin"
  },
  {
    "Structure Notation": "CN1CCC(C(=O)Nc2cc3cc(-c4cnsc4)ncc3cn2)CC1",
    "Group": "high bin"
  }
]
